Where do these numbers come from? They come from patent US5306720A.

- study.target: acetylcholinesterase (Mus musculus)
- Construct: Using a mouse brain homogenate as a source of acetylcholinesterase; from tissue; host or cells: mouse brain homogenate
- Sequence (P21836 32-614): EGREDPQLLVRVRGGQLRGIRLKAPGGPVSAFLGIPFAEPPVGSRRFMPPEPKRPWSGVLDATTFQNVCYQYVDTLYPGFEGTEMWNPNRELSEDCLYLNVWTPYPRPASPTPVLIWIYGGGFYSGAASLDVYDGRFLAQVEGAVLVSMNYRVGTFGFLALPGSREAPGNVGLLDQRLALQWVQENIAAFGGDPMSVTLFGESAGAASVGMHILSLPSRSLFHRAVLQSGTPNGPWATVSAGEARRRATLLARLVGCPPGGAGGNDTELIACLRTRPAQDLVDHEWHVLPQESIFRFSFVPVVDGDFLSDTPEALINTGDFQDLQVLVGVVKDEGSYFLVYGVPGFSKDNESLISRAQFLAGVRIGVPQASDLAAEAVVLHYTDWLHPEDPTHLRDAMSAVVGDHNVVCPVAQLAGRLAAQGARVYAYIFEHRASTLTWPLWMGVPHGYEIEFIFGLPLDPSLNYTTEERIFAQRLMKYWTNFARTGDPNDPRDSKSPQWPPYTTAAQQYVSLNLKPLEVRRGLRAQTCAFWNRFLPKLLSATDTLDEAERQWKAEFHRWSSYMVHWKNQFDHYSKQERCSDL
- assay.procedure: biochemical
- Type: biochemical
- setup.conditions: mouse brain homogenate; thiocholine method, absorbance at 412 nm; read-out: AChE inhibitory activity IC50
Entries and their IC50
Expressed in nM, but write only the number.

>>> df
                                   compound                         study_target  value_reported
0  CC(=O)Nc1ccc2c(c1)C(=O)N(CCC1CCN(Cc3ccccc3)CC1)C2=O [Example 50]  acetylcholinesterase (Mus musculus)             2.8
1  O=C(NCCC1CCN(Cc2ccccc2)CC1)c1ccc(SCCl)cc1 [Example 115]  acetylcholinesterase (Mus musculus)             6.7
2  O=C1c2cccnc2C(=O)N1CCC1CCN(Cc2ccccc2)CC1 [Example 58]  acetylcholinesterase (Mus musculus)              13
3  CN(CCC1CCN(Cc2ccccc2)CC1)C(=O)c1ccc(-c2ccccc2)cc1 [Example 32]  acetylcholinesterase (Mus musculus)             4.3

Proceeding to the next compound to report its IC50.
## Input Bench note: what IC50 did O=C(NCCC1CCN(Cc2ccccc2)CC1)c1ccc(SCc2ccccc2)cc1 [Example 88] show?
## Output 49
